Readings of IC50 for the listed compounds
Target: human Nav1.7 channels (Homo sapiens, UniProt Q15858)
Sequence (Q15858 whole entry): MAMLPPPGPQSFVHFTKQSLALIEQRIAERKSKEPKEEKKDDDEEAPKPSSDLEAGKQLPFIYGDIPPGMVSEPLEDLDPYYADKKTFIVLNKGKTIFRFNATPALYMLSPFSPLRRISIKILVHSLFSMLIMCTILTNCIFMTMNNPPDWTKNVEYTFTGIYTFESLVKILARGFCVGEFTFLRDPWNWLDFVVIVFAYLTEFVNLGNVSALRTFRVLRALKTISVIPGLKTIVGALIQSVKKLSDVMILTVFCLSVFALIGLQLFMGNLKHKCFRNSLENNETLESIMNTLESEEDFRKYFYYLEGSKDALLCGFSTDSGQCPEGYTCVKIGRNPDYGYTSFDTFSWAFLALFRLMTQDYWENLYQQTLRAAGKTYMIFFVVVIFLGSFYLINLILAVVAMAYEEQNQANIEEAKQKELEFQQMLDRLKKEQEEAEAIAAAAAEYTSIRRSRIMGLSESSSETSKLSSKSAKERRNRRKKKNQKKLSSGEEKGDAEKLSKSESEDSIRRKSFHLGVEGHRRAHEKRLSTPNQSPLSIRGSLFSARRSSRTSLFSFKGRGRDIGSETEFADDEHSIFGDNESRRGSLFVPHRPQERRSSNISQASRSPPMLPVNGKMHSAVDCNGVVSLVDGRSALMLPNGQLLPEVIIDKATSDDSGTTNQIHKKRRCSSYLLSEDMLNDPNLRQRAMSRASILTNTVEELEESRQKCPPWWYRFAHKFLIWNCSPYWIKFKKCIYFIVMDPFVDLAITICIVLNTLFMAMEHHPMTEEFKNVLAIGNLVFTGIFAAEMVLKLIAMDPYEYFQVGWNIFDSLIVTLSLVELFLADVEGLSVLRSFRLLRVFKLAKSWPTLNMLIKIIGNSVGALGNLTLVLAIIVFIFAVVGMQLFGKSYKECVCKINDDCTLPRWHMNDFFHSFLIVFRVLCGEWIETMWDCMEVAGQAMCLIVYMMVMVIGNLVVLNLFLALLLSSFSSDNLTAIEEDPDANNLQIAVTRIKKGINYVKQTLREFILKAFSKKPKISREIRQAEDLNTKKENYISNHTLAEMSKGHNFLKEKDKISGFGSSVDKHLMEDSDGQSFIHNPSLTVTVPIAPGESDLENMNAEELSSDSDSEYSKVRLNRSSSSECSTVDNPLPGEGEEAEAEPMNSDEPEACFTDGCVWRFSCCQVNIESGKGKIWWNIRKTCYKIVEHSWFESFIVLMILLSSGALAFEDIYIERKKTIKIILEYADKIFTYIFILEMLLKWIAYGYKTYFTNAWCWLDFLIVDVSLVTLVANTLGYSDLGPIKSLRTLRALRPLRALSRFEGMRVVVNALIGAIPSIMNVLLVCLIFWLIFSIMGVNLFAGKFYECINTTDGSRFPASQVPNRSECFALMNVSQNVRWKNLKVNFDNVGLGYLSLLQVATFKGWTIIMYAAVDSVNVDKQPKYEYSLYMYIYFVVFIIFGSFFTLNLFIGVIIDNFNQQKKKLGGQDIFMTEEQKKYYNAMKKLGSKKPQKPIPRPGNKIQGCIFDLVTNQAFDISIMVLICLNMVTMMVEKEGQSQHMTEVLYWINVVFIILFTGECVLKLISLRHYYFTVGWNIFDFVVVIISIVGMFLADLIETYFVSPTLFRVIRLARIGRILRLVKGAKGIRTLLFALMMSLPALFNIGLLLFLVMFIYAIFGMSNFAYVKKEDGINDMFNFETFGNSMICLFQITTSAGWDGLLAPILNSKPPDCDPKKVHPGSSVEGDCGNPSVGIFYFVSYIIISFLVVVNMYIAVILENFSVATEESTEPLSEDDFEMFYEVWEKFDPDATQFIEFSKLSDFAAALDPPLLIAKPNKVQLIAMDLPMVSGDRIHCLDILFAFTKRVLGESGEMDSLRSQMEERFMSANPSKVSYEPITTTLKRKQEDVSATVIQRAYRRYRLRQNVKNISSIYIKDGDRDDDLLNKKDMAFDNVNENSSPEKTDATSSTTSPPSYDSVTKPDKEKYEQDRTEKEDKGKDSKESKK
Assay: FRET assay, human Nav1.7 (EFS on FDSS)
Settings: CHO cells expressing human Nav1.7, read-out: IC50 against Nav1.7
READOUT KIND: IC50

[[record]]
compound = "O=C(NCc1ccc(OCC(F)(F)C(F)F)nc1)c1ccnc(NC(=O)C2CC2)n1"
readout_kind = "IC50"
endpoint_value = "< 1000 nM"

[[record]]
compound = "CCOc1nc(OCC(F)(F)F)ccc1CNC(=O)c1ccnc(NC(=O)C(C)C)c1"
readout_kind = "IC50"
endpoint_value = "< 1000 nM"

[[record]]
compound = "CCC(=O)Nc1cc(C(=O)NC(C)c2ccc(OCC(F)F)cc2Cl)ccn1 (single isomer, unassigned)"
readout_kind = "IC50"
endpoint_value = "< 1000 nM"

[[record]]
compound = "Cc1cc(C(=O)NC(C)c2cnc(OCC(F)(F)F)c(C)c2)nc(Nc2ncco2)n1 (single isomer, unassigned)"
readout_kind = "IC50"
endpoint_value = "< 1000 nM"

[[record]]
compound = "Cc1cc(C(=O)NCc2cnc(OCC(F)(F)F)c(Cl)c2)nc(NC(=O)C(C)C)n1"
readout_kind = "IC50"
endpoint_value = "< 1000 nM"

[[record]]
compound = "Cc1cc(C(=O)NCc2cccc(OC(F)(F)F)c2)cc(NC(=O)CC2CC2)n1"
readout_kind = "IC50"
endpoint_value = "< 1000 nM"

[[record]]
compound = "Cc1cc(C(=O)NCc2ccc(OCC(F)(F)F)c(C)c2)cc(NC(=O)C2CC2)n1"
readout_kind = "IC50"
endpoint_value = "< 1000 nM"

[[record]]
compound = "CCC(=O)Nc1cc(C(=O)NCc2ccc(OCC(F)(F)C(F)(F)F)nc2)cc(C)n1"
readout_kind = "IC50"
endpoint_value = "< 1000 nM"

[[record]]
compound = "CC(=O)Nc1nc(C)cc(C(=O)NCc2cnc(OCC(F)(F)F)c(C)c2)n1"
readout_kind = "IC50"
endpoint_value = "< 1000 nM"

[[record]]
compound = "Cc1cc(C(=O)NCc2ccc(OCC(F)(F)F)nc2)cc(NC(=O)C2CC2)n1"
readout_kind = "IC50"
endpoint_value = "< 1000 nM"

[[record]]
compound = "CC(=O)Nc1cc(C(=O)NC(C)c2cnc(OCC(F)(F)C(F)F)c(C)c2)cc(C)n1 (single isomer, unassigned)"
readout_kind = "IC50"
endpoint_value = "< 1000 nM"

[[record]]
compound = "Cc1cc(C(=O)NCc2cnc(OCC(F)(F)F)c(Br)c2)cc(NC(=O)C(C)C)n1"
readout_kind = "IC50"
endpoint_value = "< 1000 nM"

[[record]]
compound = "Cc1cc(C(=O)NC(C)c2cnc(OCC(F)(F)F)c(F)c2)cc(NC(=O)C(C)C)n1 (single isomer, unassigned)"
readout_kind = "IC50"
endpoint_value = "< 1000 nM"

[[record]]
compound = "CC(NC(=O)c1ccnc(NC(=O)C2CC2)n1)c1ccc(OCC(F)(F)F)cc1 (single isomer, unassigned)"
readout_kind = "IC50"
endpoint_value = "< 1000 nM"

[[record]]
compound = "CC(=O)Nc1cc(C(=O)NC(C)c2cccc(OCC(F)(F)F)c2)cc(C)n1 (single isomer, unassigned)"
readout_kind = "IC50"
endpoint_value = "< 1000 nM"

[[record]]
compound = "CC(NC(=O)c1ccnc(NC(=O)C2CC2)c1)c1ccc(OCC(F)(F)C(F)F)nc1 (single isomer, unassigned)"
readout_kind = "IC50"
endpoint_value = "< 1000 nM"

[[record]]
compound = "CC(=O)Nc1cc(C(=O)NC(C)c2cc(C)nc(OCC(F)(F)F)c2)ccn1 (single isomer, unassigned)"
readout_kind = "IC50"
endpoint_value = "< 1000 nM"

[[record]]
compound = "Cc1cc(C(=O)NCc2ccc(OCC(F)(F)C(F)(F)F)nc2)cc(NC(=O)C2CC2)n1"
readout_kind = "IC50"
endpoint_value = "< 1000 nM"

[[record]]
compound = "O=C(NCc1cnc(OCC(F)(F)F)c(Cl)c1)c1ccnc(NC(=O)C2CC2)n1"
readout_kind = "IC50"
endpoint_value = "< 1000 nM"

[[record]]
compound = "CC(=O)Nc1cc(C(=O)NC(C)c2ccc(OCC(F)(F)F)cc2Cl)cc(C)n1 (single isomer, unassigned)"
readout_kind = "IC50"
endpoint_value = "< 1000 nM"

[[record]]
compound = "CCc1cc(CNC(=O)c2cc(C)nc(NC(=O)C3CC3)c2)cnc1OCC(F)(F)F"
readout_kind = "IC50"
endpoint_value = "< 1000 nM"

[[record]]
compound = "COc1nc(OCC(F)(F)F)ccc1CNC(=O)c1ccnc(NC(C)=O)c1"
readout_kind = "IC50"
endpoint_value = "< 1000 nM"

[[record]]
compound = "CCC(=O)Nc1nc(C)cc(C(=O)NCc2cnc(OCC(F)(F)F)c(C)c2)n1"
readout_kind = "IC50"
endpoint_value = "< 1000 nM"

[[record]]
compound = "Cc1cc(C(=O)NCc2ccc(OCCC(F)(F)F)nc2)cc(NC(=O)C(C)C)n1"
readout_kind = "IC50"
endpoint_value = "< 1000 nM"

[[record]]
compound = "CC(=O)Nc1cc(C(=O)NCc2cccc(OC(F)(F)F)c2)ccn1"
readout_kind = "IC50"
endpoint_value = "< 1000 nM"

[[record]]
compound = "Cc1cc(C(=O)NCc2ccc(OC(F)(F)F)c(C)c2)nc(NC(=O)C2CC2)n1"
readout_kind = "IC50"
endpoint_value = "< 1000 nM"

[[record]]
compound = "COc1nc(OCC(F)F)ccc1CNC(=O)c1cc(C)nc(NC(C)=O)c1"
readout_kind = "IC50"
endpoint_value = "< 1000 nM"

[[record]]
compound = "COc1cc(OC(F)(F)F)ccc1CNC(=O)c1cc(C)nc(NC(=O)C(C)C)c1"
readout_kind = "IC50"
endpoint_value = "< 1000 nM"


----------
Molecular target: human Nav1.3 (hSCN3A) (Homo sapiens)
Assay: Electrophysiology assay for Navs, whole cell patch clamp, Nav1.3
Details: Kinact, dissociation constant for the inactivated state, read-out: activities (Ki) against Nav1.3
pKi: −log10 of the molar value.
READOUT KIND: pKi

[[record]]
compound = "CC(=O)Nc1cc(C(=O)NC(C)c2ccc(OCC(F)(F)F)nc2)ccn1 (single isomer, unassigned; (-))"
endpoint_value = 5.82


----------
Target: human Nav1.3 channels (Homo sapiens)
Construct: expressed in transfected cells; host or cells: HEK293
Sequence (Q9NY46 whole entry): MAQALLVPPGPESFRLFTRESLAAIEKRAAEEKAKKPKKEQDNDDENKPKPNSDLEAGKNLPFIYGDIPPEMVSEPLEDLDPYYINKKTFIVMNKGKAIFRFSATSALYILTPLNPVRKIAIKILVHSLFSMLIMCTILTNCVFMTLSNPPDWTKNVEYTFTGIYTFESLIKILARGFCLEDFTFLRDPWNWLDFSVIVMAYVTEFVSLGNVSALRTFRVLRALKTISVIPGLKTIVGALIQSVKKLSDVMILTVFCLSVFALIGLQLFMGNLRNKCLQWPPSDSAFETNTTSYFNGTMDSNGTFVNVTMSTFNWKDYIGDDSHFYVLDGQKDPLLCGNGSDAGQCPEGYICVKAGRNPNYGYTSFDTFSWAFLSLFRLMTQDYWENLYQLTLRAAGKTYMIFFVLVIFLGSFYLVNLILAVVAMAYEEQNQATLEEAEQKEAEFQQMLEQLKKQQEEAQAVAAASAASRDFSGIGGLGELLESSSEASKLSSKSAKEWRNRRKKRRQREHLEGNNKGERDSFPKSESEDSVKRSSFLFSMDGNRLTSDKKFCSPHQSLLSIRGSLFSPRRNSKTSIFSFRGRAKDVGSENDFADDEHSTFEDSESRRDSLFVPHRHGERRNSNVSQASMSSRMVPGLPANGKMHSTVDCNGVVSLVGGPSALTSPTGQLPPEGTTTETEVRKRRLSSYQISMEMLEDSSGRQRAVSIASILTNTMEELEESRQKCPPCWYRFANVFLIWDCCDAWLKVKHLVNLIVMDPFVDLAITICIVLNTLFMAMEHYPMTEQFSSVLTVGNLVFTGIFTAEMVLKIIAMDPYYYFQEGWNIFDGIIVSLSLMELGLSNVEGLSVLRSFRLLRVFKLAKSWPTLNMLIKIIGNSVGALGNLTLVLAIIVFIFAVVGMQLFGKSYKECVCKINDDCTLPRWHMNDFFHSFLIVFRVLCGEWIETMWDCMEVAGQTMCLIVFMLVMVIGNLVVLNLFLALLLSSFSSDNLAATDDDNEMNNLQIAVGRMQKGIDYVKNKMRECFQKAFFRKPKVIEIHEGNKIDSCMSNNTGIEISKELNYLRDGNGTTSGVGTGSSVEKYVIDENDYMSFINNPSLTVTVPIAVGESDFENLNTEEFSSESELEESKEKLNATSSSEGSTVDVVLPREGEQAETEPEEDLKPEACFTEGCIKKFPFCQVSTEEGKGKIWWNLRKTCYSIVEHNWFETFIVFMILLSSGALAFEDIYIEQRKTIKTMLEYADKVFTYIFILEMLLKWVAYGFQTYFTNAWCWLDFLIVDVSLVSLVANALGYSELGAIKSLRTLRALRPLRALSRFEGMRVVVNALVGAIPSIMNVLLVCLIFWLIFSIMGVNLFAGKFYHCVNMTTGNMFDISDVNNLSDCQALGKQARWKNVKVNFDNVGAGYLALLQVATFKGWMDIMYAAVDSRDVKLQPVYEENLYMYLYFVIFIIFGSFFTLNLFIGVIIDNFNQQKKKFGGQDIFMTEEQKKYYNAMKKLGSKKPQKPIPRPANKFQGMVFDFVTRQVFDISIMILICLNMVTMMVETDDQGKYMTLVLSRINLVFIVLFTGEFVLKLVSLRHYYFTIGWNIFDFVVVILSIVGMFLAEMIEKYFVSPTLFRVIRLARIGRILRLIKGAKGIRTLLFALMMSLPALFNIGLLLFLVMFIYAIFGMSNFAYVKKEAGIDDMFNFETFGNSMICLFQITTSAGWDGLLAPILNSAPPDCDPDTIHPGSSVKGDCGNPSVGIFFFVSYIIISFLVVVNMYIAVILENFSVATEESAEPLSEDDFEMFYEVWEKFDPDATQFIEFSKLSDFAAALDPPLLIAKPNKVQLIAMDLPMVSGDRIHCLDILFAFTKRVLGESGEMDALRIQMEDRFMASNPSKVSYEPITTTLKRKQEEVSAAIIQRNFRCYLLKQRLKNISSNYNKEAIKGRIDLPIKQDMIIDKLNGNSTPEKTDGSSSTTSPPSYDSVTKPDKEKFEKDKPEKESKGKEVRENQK
Test: FRET assay, human Nav1.3 (EFS on FDSS)
Format: cell-based
Settings: HEK293 cells expressing human Nav1.3, read-out: IC50 against Nav1.3
pIC50: −log10 of the molar value.
READOUT KIND: pIC50

[[record]]
compound = "Cc1cc(C(C)NC(=O)c2ccnc(NC(=O)C(C)C)c2)cnc1OCC(F)(F)C(F)F (single isomer, unassigned) [Example 904]"
readout_kind = "pIC50"
endpoint_value = "> 6.00"

[[record]]
compound = "CCC(=O)Nc1cc(C(=O)NCc2ccc(F)c(OC(F)(F)F)c2)cc(C)n1 [Example 591]"
readout_kind = "pIC50"
endpoint_value = "> 6.00"

[[record]]
compound = "CCC(=O)Nc1cc(C(=O)NCc2cccc(OCC(F)(F)F)n2)cc(C)n1 [Example 467]"
readout_kind = "pIC50"
endpoint_value = "> 6.00"

[[record]]
compound = "CCc1cc(CNC(=O)c2ccnc(NC(=O)C(C)C)c2)cnc1OCC(F)(F)F [Example 712]"
readout_kind = "pIC50"
endpoint_value = "> 6.00"

[[record]]
compound = "CC(C)C(=O)Nc1cc(C(=O)NC(C)c2ccc(OCC(F)(F)F)nc2)ccn1 (single isomer, unassigned) [Example 8]"
readout_kind = "pIC50"
endpoint_value = "> 6.00"

[[record]]
compound = "CCC(=O)Nc1cc(C(=O)NC(C)c2ccc(OCC(F)(F)F)cc2)cc(C)n1 (single isomer, unassigned) [Example 136]"
readout_kind = "pIC50"
endpoint_value = "> 6.00"

[[record]]
compound = "Cc1cc(C(C)NC(=O)c2ccc3cccc(O)c3n2)cnc1OCC(F)(F)F (single isomer, unassigned) [Example 535]"
readout_kind = "pIC50"
endpoint_value = "> 6.00"


Origin of the recorded values: patent US9302991B2
